The reported numbers originate from patent US20230278972A1.

# System: Pigweed, Palmer (palmer amaranth, palmer pigweed, Amaranthus palmeri)
# experiment: Test A1 postemergence, Pigweed, Palmer
# Format: in vivo
# reported-conditions: Postemergence, 31 g ai/ha; 0 to 100 scale (0 no effect, 100 complete control); 10 days
readout-label: Plant response rating, Pigweed, Palmer
Enter a number only.

Observe how each entry below is paired with its result.
compound: Cc1cc(F)c(C2=NOC3CCCC23)cc1NS(=O)(=O)C(F)(F)F (centres unmarked)
reading: 0
--
compound: Cc1cc(C2CC2)c(C2=NOC3CCCC23)cc1NS(=O)(=O)C(F)(F)F (centres unmarked)
reading: 0
--
compound: Cc1c(NS(=O)(=O)C(F)(F)F)cc(C2=NOC3CCCC23)c(C)c1C (centres unmarked)
reading: 20
--
compound: COc1cc(C)c(C2=NOC3(CCCC3)C2)cc1NS(=O)(=O)C(F)(F)F
reading: 0
--
compound: Cc1cc(C)c(N(COC(=O)C(C)(C)C)S(=O)(=O)C(F)(F)F)cc1C(=O)N1CCC(c2ccccc2)CC1
reading: 0

Exam item: // lookup Plant response rating, Pigweed, Palmer for Cc1c(NS(=O)(=O)C(F)(F)F)cc(C(=O)N2CCC(F)(F)CC2)c(C)c1C
Marked response: 0

Exam item: // lookup Plant response rating, Pigweed, Palmer for Cc1cc(C(F)(F)F)c(C2=NOC3CCCC23)cc1NS(=O)(=O)C(F)(F)F (centres unmarked)
Marked response: 0

Exam item: // lookup Plant response rating, Pigweed, Palmer for Cc1c(C(=O)N2CCC(F)(F)CC2)cc(N(COC(=O)C(C)(C)C)S(=O)(=O)C(F)(F)F)c(C)c1C
Marked response: 20

* * *

Listed compounds paired with reported Plant response rating, Foxtail, Giant
# System: Foxtail, Giant (giant foxtail, Setaria faberi)
# experiment: Test A1 postemergence, Foxtail, Giant
# Assay type: in vivo
# reported-conditions: Postemergence, 125 g ai/ha; 0 to 100 scale
Enter a number only.

Exam item: // lookup Plant response rating, Foxtail, Giant for Cc1c(C(=O)N2CCSCC2)cc(N(COC(=O)C(C)(C)C)S(=O)(=O)C(F)(F)F)c(C)c1C
Marked response: 80

Exam item: // lookup Plant response rating, Foxtail, Giant for Cc1cc(Br)c(C2=NOC3CCCC23)cc1NS(=O)(=O)C(F)(F)F (centres unmarked)
Marked response: 0

Exam item: // lookup Plant response rating, Foxtail, Giant for Cc1cc(C)c(N(COC(=O)C(C)(C)C)S(=O)(=O)C(F)(F)F)cc1C(=O)N1CCOCC1
Marked response: 90

Exam item: // lookup Plant response rating, Foxtail, Giant for Cc1c(NS(=O)(=O)C(F)(F)F)cc(C(=O)N2CC(C)OC(C)C2)c(C)c1C (centres unmarked)
Marked response: 70

* * *

# System: Oat, Wild (wild oat, Avena fatua)
# experiment: Test A1 preemergence, Oat, Wild
# Assay type: in vivo
# reported-conditions: 125 g ai/ha, 0 to 100 scale, 0 no effect, 100 complete control
Listed molecules paired with reported Plant response rating, Oat, Wild
Enter a number only.

Observe how each entry below is paired with its result.
molecule: Cc1cc(C(F)(F)F)c(C2=NOC3CCCC23)cc1NS(=O)(=O)C(F)(F)F (stereo not shown)
reading: 10
//
molecule: COc1cnn(-c2cc(NS(=O)(=O)C(F)(F)F)c(C)cc2C)c(=O)c1OC
reading: 30
//
molecule: CCc1cc(C)c(N(COC(=O)C(C)(C)C)S(=O)(=O)C(F)(F)F)cc1C1=NOC2CCCC12 (stereo not shown)
reading: 40
//
molecule: Cc1c(C(=O)N2CCCCC2)cc(NS(=O)(=O)C(F)(F)F)c(Cl)c1F
reading: 40
//
molecule: COC1CCC2(CC1)CCN(c1cc(NS(=O)(=O)C(F)(F)F)c(C)cc1C)C2=O (stereo not shown)
reading: 70

Exam item: So what Plant response rating, Oat, Wild did CCOC(=O)N(c1cc(C(=O)N2CCSCC2)c(C)c(C)c1C)S(=O)(=O)C(F)(F)F get with Oat, Wild (wild oat, Avena fatua)?
Marked response: 0

Exam item: So what Plant response rating, Oat, Wild did Cc1cc(Cl)c(NS(=O)(=O)C(F)(F)F)cc1N1CC2(CCCCC2)OC1=O get with Oat, Wild (wild oat, Avena fatua)?
Marked response: 90

Exam item: So what Plant response rating, Oat, Wild did Cc1cc(C)c(C2=NOC(OCC(C)C)C2)cc1NS(=O)(=O)C(F)(F)F (stereo not shown) get with Oat, Wild (wild oat, Avena fatua)?
Marked response: 30

Exam item: So what Plant response rating, Oat, Wild did Cc1cc(C)c(N(COC(=O)C(C)(C)C)S(=O)(=O)C(F)(F)F)cc1C(=O)N1CCOCC1 get with Oat, Wild (wild oat, Avena fatua)?
Marked response: 30

Exam item: So what Plant response rating, Oat, Wild did COC(=O)OCN(c1cc(C2=NOC3CCCC23)c(C)cc1C)S(=O)(=O)C(F)(F)F (stereo not shown) get with Oat, Wild (wild oat, Avena fatua)?
Marked response: 20

Exam item: So what Plant response rating, Oat, Wild did Cc1cc(C)c(C2=NOC3CCCCCC23)cc1NS(=O)(=O)C(F)(F)F (stereo not shown) get with Oat, Wild (wild oat, Avena fatua)?
Marked response: 50

Exam item: So what Plant response rating, Oat, Wild did Cc1cc(C)c(-n2nccc(C)c2=O)cc1NS(=O)(=O)C(F)(F)F get with Oat, Wild (wild oat, Avena fatua)?
Marked response: 0

Exam item: So what Plant response rating, Oat, Wild did CCOC(=O)N(c1cc(C(=O)N2CCOCC2)c(C)c(C)c1C)S(=O)(=O)C(F)(F)F get with Oat, Wild (wild oat, Avena fatua)?
Marked response: 70

Exam item: So what Plant response rating, Oat, Wild did Cc1c(C(=O)N2CCC(F)CC2)cc(N(COC(=O)C(C)(C)C)S(=O)(=O)C(F)(F)F)c(C)c1C get with Oat, Wild (wild oat, Avena fatua)?
Marked response: 0

Exam item: So what Plant response rating, Oat, Wild did COC1CCCN(C(=O)c2cc(NS(=O)(=O)C(F)(F)F)c(Cl)c(F)c2C)C1 (stereo not shown) get with Oat, Wild (wild oat, Avena fatua)?
Marked response: 20

Exam item: So what Plant response rating, Oat, Wild did Cc1cc(C)c(N(COC(=O)C(C)(C)C)S(=O)(=O)C(F)(F)F)cc1C1=NOC2CCCCCC12 (single isomer, unassigned) get with Oat, Wild (wild oat, Avena fatua)?
Marked response: 20
